- MEASUREMENT_DESCRIPTION: Pharmacokinetics and oral bioavailability in rats
- Format: in vivo
- RUN_CONDITIONS: plasma, oral, 2 /kg; Rat, Dose/kg 2.0; read-out: CLtot (mL/min/kg) apparent plasma clearance
REPORTED_ENDPOINT: clearance (mL/min/kg)
Answers are plain numbers, in mL/min/kg.

[ask] Data request, read-out clearance, for CO[C@H]1C[C@@H](COC2CCC(C(=O)O)CC2)N(C(=O)Cc2ccc3nc(Nc4ccccc4C)oc3c2)C1 (single isomer, unassigned) [20 (Isomer A)]
[reply] 73

====

- TARGET_ENTITY: integrins haα4 and β1 (VLA-4) expressed on CHO cells (Homo sapiens, UniProt P05556+P13612)
- Construct: expressed in transfected cells; host or cells: CHO cells
- Sequence (P13612 34-1032): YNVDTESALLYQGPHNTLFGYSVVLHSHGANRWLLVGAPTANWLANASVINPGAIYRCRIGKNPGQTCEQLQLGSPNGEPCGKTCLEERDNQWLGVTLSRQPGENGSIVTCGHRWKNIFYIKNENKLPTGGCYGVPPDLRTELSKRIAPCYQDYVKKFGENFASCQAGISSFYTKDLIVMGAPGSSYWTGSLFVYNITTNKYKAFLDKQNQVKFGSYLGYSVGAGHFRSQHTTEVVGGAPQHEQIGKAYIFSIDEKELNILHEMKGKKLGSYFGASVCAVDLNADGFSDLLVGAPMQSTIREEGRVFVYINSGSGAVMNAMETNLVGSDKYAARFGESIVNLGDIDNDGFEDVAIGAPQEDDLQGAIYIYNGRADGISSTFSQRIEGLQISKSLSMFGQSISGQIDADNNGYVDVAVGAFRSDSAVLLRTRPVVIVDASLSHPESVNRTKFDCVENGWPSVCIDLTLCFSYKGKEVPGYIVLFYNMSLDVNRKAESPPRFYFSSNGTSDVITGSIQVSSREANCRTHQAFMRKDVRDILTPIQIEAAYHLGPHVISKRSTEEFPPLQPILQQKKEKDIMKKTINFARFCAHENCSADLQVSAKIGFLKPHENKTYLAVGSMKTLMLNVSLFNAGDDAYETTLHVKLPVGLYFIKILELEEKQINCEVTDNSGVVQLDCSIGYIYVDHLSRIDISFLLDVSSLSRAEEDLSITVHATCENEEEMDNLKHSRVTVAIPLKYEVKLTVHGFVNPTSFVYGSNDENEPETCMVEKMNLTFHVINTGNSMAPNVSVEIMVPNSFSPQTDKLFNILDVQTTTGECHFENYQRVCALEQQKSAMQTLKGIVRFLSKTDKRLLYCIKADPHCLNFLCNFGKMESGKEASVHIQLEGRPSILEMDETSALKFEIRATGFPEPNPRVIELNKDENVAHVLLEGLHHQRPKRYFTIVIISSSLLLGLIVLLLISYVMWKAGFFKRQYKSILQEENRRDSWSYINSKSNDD
- Sequence (P05556 21-798): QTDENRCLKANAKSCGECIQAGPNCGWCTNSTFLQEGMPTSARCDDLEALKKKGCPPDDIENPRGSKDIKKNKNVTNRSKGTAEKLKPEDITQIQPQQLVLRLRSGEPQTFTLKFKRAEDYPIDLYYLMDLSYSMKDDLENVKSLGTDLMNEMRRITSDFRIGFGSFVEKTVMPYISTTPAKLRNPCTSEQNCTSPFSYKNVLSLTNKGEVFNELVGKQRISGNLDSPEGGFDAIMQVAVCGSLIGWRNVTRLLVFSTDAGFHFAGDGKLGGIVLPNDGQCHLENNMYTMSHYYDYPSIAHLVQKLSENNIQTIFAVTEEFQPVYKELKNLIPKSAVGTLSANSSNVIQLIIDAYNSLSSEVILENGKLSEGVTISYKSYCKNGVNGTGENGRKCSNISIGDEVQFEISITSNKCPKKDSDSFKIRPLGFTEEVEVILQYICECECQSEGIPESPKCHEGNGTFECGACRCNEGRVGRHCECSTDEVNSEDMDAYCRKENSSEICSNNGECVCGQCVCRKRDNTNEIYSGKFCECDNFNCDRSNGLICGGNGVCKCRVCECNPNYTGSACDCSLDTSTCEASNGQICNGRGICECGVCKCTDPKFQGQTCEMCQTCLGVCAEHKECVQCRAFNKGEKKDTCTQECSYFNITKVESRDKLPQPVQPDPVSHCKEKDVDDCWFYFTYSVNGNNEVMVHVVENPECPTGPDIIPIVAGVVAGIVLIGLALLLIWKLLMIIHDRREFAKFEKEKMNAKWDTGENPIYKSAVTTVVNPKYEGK
- MEASUREMENT_DESCRIPTION: In vitro Evaluation Test (1): binding of Eu3+-hVCAM-1 D1D7-IgG to CHO cells expressing integrins α4 and β1
- RUN_CONDITIONS: inhibition of Eu3+-hVCAM-1 D1D7-IgG binding to CHO cells expressing α4β1; Ki calculated from IC50
REPORTED_ENDPOINT: Ki (nM)
One number for each entry, in nM.

Recorded results for 2 compounds are shown here.
C[C@H]1C[C@@H](CO[C@H]2CC[C@H](C(=O)O)CC2)N(C(=O)Cc2cc(Cl)c(NC(=O)c3nn(C)c4ccccc34)cc2F)C1 [Example 135] ... 19
Cn1cc(C(=O)Nc2ccc(CC(=O)N3C[C@@H](F)C[C@H]3CO[C@H]3CC[C@H](C(=O)O)CC3)nc2Cl)c2ccccc21 [Example 69] ... 34

# context switch: different compound, same Ki
[ask] For the compound Cn1cc(C(=O)Nc2cc(F)c(CC(=O)N3C[C@@H](F)C[C@H]3C(=O)N[C@H]3CC[C@H](C(=O)O)CC3)cc2Cl)c2ccccc21 [Example 111] , what Ki is on record?
[reply] 2.6

====

- MEASUREMENT_DESCRIPTION: Pharmacokinetics and oral bioavailability in rats
- Assay type: in vivo
- RUN_CONDITIONS: plasma, 5 /kg; Rat, oral, Dose/kg 5.0; read-out: F (%) oral bioavailability
REPORTED_ENDPOINT: bioavailability (%)
One number for each entry, in %.

[ask] Given the entry Cc1ccccc1Nc1nc2ccc(CC(=O)N3C[C@@H](F)C[C@H]3COC3CCC(C(=O)O)CC3)cc2o1 (single isomer, unassigned) [21 (Isomer H)] , report its measured bioavailability.
[reply] 52

====

- TARGET_ENTITY: integrins haα4 and β1 (VLA-4) expressed on CHO cells (Homo sapiens, UniProt P05556+P13612)
- MEASUREMENT_DESCRIPTION: In vitro Evaluation Test (1): binding of Eu3+-hVCAM-1 D1D7-IgG to CHO cells expressing integrins α4 and β1
- RUN_CONDITIONS: inhibition of Eu3+-hVCAM-1 D1D7-IgG binding to CHO cells expressing α4β1; Ki calculated from IC50
- Description: CHO cells forcedly expressed by the transduction of integrins haα4 and β1 were seeded in a Coster 3599 plate (3×10^4 cells/100 μl/well) and they were cultured for 2 days. After the medium was washed with buffer A* twice, 50 μl/well of Eu^3+-hVCAM-1 D1D7-IgG diluted to […] with an assay buffer ** was added. […] The plate was shaken for 5 minutes on a plate mixer, followed by measurement of fluorescence intensity by a time-resolved fluorometer (DELFIA Wallac). […] The value Ki was calculated based on: […]
REPORTED_ENDPOINT: pKi
Answers are plain numbers, as −log10 of the molar value.

Recorded results for 3 compounds are shown here.
O=C(Cc1cc(Cl)c(Nc2nc3ccccc3o2)cc1F)N1C[C@@H](F)C[C@H]1CO[C@H]1CC[C@H](C(=O)O)CC1 [Example 55] ... 8.07
COC[C@@H]1CC[C@@H](CO[C@H]2CC[C@H](C(=O)O)CC2)N1C(=O)Cc1cc(Cl)c(NC(=O)c2cn(C)c3ccccc23)cc1F [Example 141] ... 7.68
O=C(Nc1ccc(CC(=O)N2C[C@@H](F)C[C@H]2C(=O)N[C@H]2CC[C@H](C(=O)O)CC2)cc1Cl)c1nccc2ccccc12 [Example 112] ... 8.19

Below are 3 compounds. Give each one its pKi.
1. O=C(Cc1cc(Cl)c(Nc2nc3ccccc3s2)cc1F)N1C[C@@H](F)C[C@H]1CO[C@H]1CC[C@H](C(=O)O)CC1 [Example 61]
2. O=C(O)c1ccc(OC[C@@H]2C[C@H](F)CN2C(=O)Cc2ccc3nc(Nc4ccccc4)oc3c2)cc1 [Example 1]
3. Cn1cc(C(=O)Nc2cc(F)c(CC(=O)N3C[C@@H](OC4CCCCC4)C[C@H]3CO[C@H]3CC[C@H](C(=O)O)CC3)cc2Cl)c2ccccc21 [Example 119]

[reply]
[8.64, 7.52, 8.23]

====

- MEASUREMENT_DESCRIPTION: Evaluation of oral bioavailability by mouse bioassay
- Type: in vivo
- RUN_CONDITIONS: 10 mg/kg oral, female Balb/C mice, serum 15 minutes after administration, read-out: Blood level
Exercise: for every item that follows, state its recorded concentration at 15 min.
Answers are plain numbers, in µg/mL.

CO[C@H]1C[C@@H](CO[C@H]2CC[C@H](C(=O)O)CC2)N(C(=O)Cc2cc(Cl)c(NC(=O)c3nsc4ccccc34)cc2F)C1 ... 2.73
O=C(Nc1ccc(CC(=O)N2C[C@@H](F)C[C@H]2CO[C@H]2CC[C@H](C(=O)O)CC2)cc1Cl)N1CCc2ccc(F)cc21 ... 1.99

Would you kindly look at the next entry?
[ask] Query: concentration at 15 min; subject: `COC[C@H]1C[C@@H](CO[C@H]2CC[C@H](C(=O)O)CC2)N(C(=O)Cc2cc(Cl)c(NC(=O)c3cn(C)c4ccccc34)cc2F)C1`
[reply] 1.26

====

Task for the reader: assign each of the following compounds its reported concentration at 15 min.
- MEASUREMENT_DESCRIPTION: Evaluation of oral bioavailability by mouse bioassay
- Type: in vivo
- RUN_CONDITIONS: 10 mg/kg oral, female Balb/C mice, serum 15 minutes after administration, read-out: Blood level
- Experimental: A test compound was suspended or dissolved in a proper administration medium to give a concentration of 1 mg/ml. To 7 to 9 week old female Balb/C mice, 10 mg/kg of the resulting suspension or solution was orally administered. […] The concentration of each test compound was determined by estimating the serum level from a calibration curve obtained with VCAM-1/VLA-4 inhibitory activity as an index or measuring the concentration by using LC/MS/MS.
Param answer (str): number followed by unit.

// solved cases for concentration at 15 min follow
CO[C@H]1C[C@@H](CO[C@H]2CC[C@H](C(=O)O)CC2)N(C(=O)Cc2cc(Cl)c(NC(=O)c3cn(C)c4ccccc34)cc2F)C1 ... 9400 ng/mL
O=C(Nc1cc(F)c(CC(=O)N2C[C@@H](F)C[C@H]2CO[C@H]2CC[C@H](C(=O)O)CC2)cc1Cl)N1CCc2ccccc21 ... 2960 ng/mL

Working through the 8 compounds below one at a time, give concentration at 15 min for each.
1. C[C@H]1CC[C@@H](CO[C@H]2CC[C@H](C(=O)O)CC2)N1C(=O)Cc1cc(Cl)c(NC(=O)c2cn(C)c3ccccc23)cc1F
2. O=C(O)C1CCC(OC[C@@H]2C[C@H](F)CN2C(=O)Cc2ccc(NC(=O)N3CCc4ccccc43)c(Cl)c2)CC1 (stereo partly drawn)
3. CC(C)[C@H]1CC[C@@H](CO[C@H]2CC[C@H](C(=O)O)CC2)N1C(=O)Cc1cc(Cl)c(NC(=O)c2cn(C)c3ccccc23)cc1F
4. O=C(Cc1cc(Cl)c(Nc2nc3cc(F)ccc3s2)cc1F)N1C[C@@H](F)C[C@H]1CO[C@H]1CC[C@H](C(=O)O)CC1
5. Cn1cc(C(=O)Nc2cc(F)c(CC(=O)N3C[C@@H](F)C[C@H]3CO[C@H]3CC[C@H](C(=O)O)CC3)cc2F)c2ccccc21
6. COC[C@H]1C[C@@H](CO[C@H]2CC[C@H](C(=O)O)CC2)N(C(=O)Cc2cc(Cl)c(NC(=O)c3nn(C)c4ccccc34)cc2F)C1
7. Cc1ccc(F)cc1Nc1nc2ccc(CC(=O)N3C[C@@H](F)C[C@H]3CO[C@H]3CC[C@H](C(=O)O)CC3)c(F)c2o1
8. Cc1ccccc1Nc1nc2ccc(CC(=O)N3C[C@@H](Sc4ccccc4)C[C@H]3CO[C@H]3CC[C@H](C(=O)O)CC3)cc2o1

[reply]
["2500 ng/mL", "1100 ng/mL", "3470 ng/mL", "8550 ng/mL", "7340 ng/mL", "2430 ng/mL", "912 ng/mL", "705 ng/mL"]

# return concentration at 15 min for each item in the list
1. Cn1cc(C(=O)Nc2cc(F)c(CC(=O)N3C[C@@H](F)C[C@H]3CO[C@H]3CC[C@H](C(=O)O)CC3)cc2Cl)c2cc(F)ccc21
2. O=C(Nc1cc(F)c(CC(=O)N2C[C@@H](F)C[C@H]2CO[C@H]2CC[C@H](C(=O)O)CC2)cc1Cl)c1n[nH]c2ccccc12

[reply]
1. 14100 ng/mL
2. 848 ng/mL
